Test system: Hepatitis C virus NS3 helicase
Assay: blockers of NS3h binding to ssDNA – biochemical, fluorescence polarization, LOPAC1280 library, primary screen (AID 687035)
Details: Purified HCV NS3 helicase, Cy5-dT15 ssDNA binding fluorescence polarization; stronger effect = higher value; concentration not given here
Where a SMILES comes first, the peptide text is derived from it. The star is where a group is joined. Cbz = O=C(OCc1ccccc1)*
Measured quantity: inhibition (%)
One number for each entry, in %.

# count of solved cases: 4
[
  {
    "Compound": "NC(=O)c1cc[n+](CC2=C(C(=O)O)N3C(=O)[C@@H](NC(=O)[C@@H](c4ccccc4)S(=O)(=O)[O-])[C@H]3SC2)cc1",
    "Measurement target": "Hepatitis C virus NS3 helicase",
    "Reading unit": "%",
    "Reported measurement": 4
  },
  {
    "Compound": "OCc1ccc(-c2nn(Cc3ccccc3)c3ccccc23)o1",
    "Measurement target": "Hepatitis C virus NS3 helicase",
    "Reading unit": "%",
    "Reported measurement": 0
  },
  {
    "Compound": "O=c1[nH]c(=O)n([C@H]2C[C@H](O)[C@@H](CO)O2)cc1/C=C/Br",
    "Measurement target": "Hepatitis C virus NS3 helicase",
    "Reading unit": "%",
    "Reported measurement": -1
  },
  {
    "Compound": "C#CCN1C(C)=C(C(=O)OC)C(c2cccc([N+](=O)[O-])c2)C(C(=O)OCC)=C1C (configuration not stated)",
    "Measurement target": "Hepatitis C virus NS3 helicase",
    "Reading unit": "%",
    "Reported measurement": 1
  }
]

Would you be so kind as to report inhibition for each listed record?
1. COC(=O)C1=CO[C@@H](O)[C@@H]2C(CO)=CC[C@H]12
2. COc1cc2nc(N3CCCN(C)CC3)nc(NC3CCN(Cc4ccccc4)CC3)c2cc1OC
3. C[C@@]1(C2CCCC2)Cc2cc(OCC(=O)O)c(Cl)c(Cl)c2C1=O
4. O=c1[nH]c2cc(C(F)(F)F)ccc2n1-c1cc(C(F)(F)F)ccc1O
5. O=c1c(O)c(-c2cc(O)c(O)c(O)c2)oc2cc(O)cc(O)c12
6. O=C1NC(=O)/C(=C/c2ccc3c(c2)OC(F)(F)O3)S1

1: -3; 2: 3; 3: -6; 4: -6; 5: 8; 6: -5

Would you be so kind as to report inhibition for each listed record?
1. NC(=Nc1ccccc1)NC(=O)c1nc(Cl)c(N)nc1N
2. NS(=O)(=O)c1cccc2c1c([N+](=O)[O-])cc1nc(O)c(O)nc12
3. CN(C)S(=O)(=O)c1ccc2c(c1)/C(=C/c1cc3c([nH]1)CCCC3)C(=O)N2
4. CC(C)[C@H](NC(=O)OCc1ccccc1)C(=O)N[C@H](C=O)Cc1ccccc1 (Cbz-Val-Phe-aldehyde)

1. -2
2. -6
3. -2
4. 1

Cited source for all entries: PubChem BioAssay
